B1: INTS3 (parent)
chain: FHPIKETVVEEPVDITPYLDQLDE

Variants of: B1
measurement protocol: protein stability index of a GFP-peptide fusion (GPS, HEK-293T) (PSI 1-6); higher = more stable;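 also: lentivirally expressed fusions sorted by FACS into six bins by GFP to DsRed ratio, PSI derived from sequencing read proportions per bin multiplied by bin number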
cond: c terminus: a fixed tail appended
Cut-off 3 on protein stability index, inclusive. At or above means 1 (yes); below means 0 (no).

I4R	1 (yes)
T16Y	0 (no)
H2L	1 (yes)
F1Q	1 (yes)

Ask: Answer whether protein stability index of I15V is greater than or equal to 3.
Reply: 1 (yes)

Ask: Does protein stability index meet or surpass 3 for V9T ?
Reply: 1 (yes)
